Field: viability, T/C. Provide a value for each of the compounds that follow.
System: 299254-011-R-J1-PDC complex spheroid viability;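 also: spheroids exposed to drugs for one week before measurement; percent viability relative to DMSO vehicle control taken as 100%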
Assay: Anticancer human tumor 299254-011-R-J1-PDC patient-derived melanoma cell line growth inhibition [POLQ]
Settings: second compound 0.1 µM; first compound 0.0316 µM; stronger effect = lower value
Method: Multicellular complex tumor spheroid response to Polymerase (POL) inhibitors (novobiocin, ART-558, RP6685) in combination with a variety of drugs and investigational agents in selected tumor cell lines The POL inhibitors (novobiocin, ART-558, and RP6685) were evaluated both individually and in combination with standard of care and investigational anticancer small molecules within a complex spheroid model of solid tumors. . […]
Numeric only. Scale: %

Noted for CCCS(=O)(=O)Nc1ccc(F)c(C(=O)c2c[nH]c3ncc(-c4ccc(Cl)cc4)cc23)c1F + Nc1ccc(C#CCN(C(=O)Cc2ncc(C(F)(F)F)cc2C(F)(F)F)c2ccc(F)cc2)nn1 : its viability, T/C reads 92.7

Noted for CC(C)n1c(=O)n(C)c2cnc3cc(F)c(-c4ccc(OCCCN5CCCCC5)nc4)cc3c21 + Cc1cccc(N(C)C(=O)C2C(O)CCN2c2nc(C)cc(C(F)(F)F)c2C#N)c1 : its viability, T/C reads 96.2

Noted for CC[C@@]1(O)C(=O)OCc2c1cc1n(c2=O)Cc2cc3c(CN(C)C)c(O)ccc3nc2-1 + Nc1ccc(C#CCN(C(=O)Cc2ncc(C(F)(F)F)cc2C(F)(F)F)c2ccc(F)cc2)nn1 : its viability, T/C reads 94.8

Noted for O=C(Nc1ccc(O)c(NS(=O)(=O)c2ccc(F)cc2)c1)c1ccc(-c2ccccc2)cc1 + COC1C(OC(N)=O)C(O)C(Oc2ccc3c(O)c(NC(=O)c4ccc(O)c(CC=C(C)C)c4)c(=O)oc3c2C)OC1(C)C : its viability, T/C reads 95.6

Noted for CC1COCCN1c1cc(C2(O)CC3CCC(C2)O3)c2cnn(-c3ccn[nH]3)c2n1 (stereo not given) + Nc1ccc(C#CCN(C(=O)Cc2ncc(C(F)(F)F)cc2C(F)(F)F)c2ccc(F)cc2)nn1 : its viability, T/C reads 87.4

Noted for CCc1cc2c(N3CCc4c(cc(Cn5ccnc5)cc4-c4cn(C)nc4C(F)(F)F)C3=O)cc(C)nc2c(OC)n1 + Cc1cccc(N(C)C(=O)C2C(O)CCN2c2nc(C)cc(C(F)(F)F)c2C#N)c1 : its viability, T/C reads 109

Noted for COc1cccc2c1C(=O)c1c(O)c3c(c(O)c1C2=O)CC(O)(C(=O)CO)CC3OC1CC(N)C(O)C(C)O1 (stereo not given) + Nc1ccc(C#CCN(C(=O)Cc2ncc(C(F)(F)F)cc2C(F)(F)F)c2ccc(F)cc2)nn1 : its viability, T/C reads 89.8

Noted for COc1cccc2c1C(=O)c1c(O)c3c(c(O)c1C2=O)CC(O)(C(=O)CO)CC3OC1CC(N)C(O)C(C)O1 (stereo not given) + COC1C(OC(N)=O)C(O)C(Oc2ccc3c(O)c(NC(=O)c4ccc(O)c(CC=C(C)C)c4)c(=O)oc3c2C)OC1(C)C : its viability, T/C reads 86.8

Noted for CCCS(=O)(=O)Nc1ccc(F)c(C(=O)c2c[nH]c3ncc(-c4ccc(Cl)cc4)cc23)c1F + Cc1cccc(N(C)C(=O)C2C(O)CCN2c2nc(C)cc(C(F)(F)F)c2C#N)c1 : its viability, T/C reads 104

Noted for CCc1c2c(nc3ccc(O)cc13)-c1cc3c(c(=O)n1C2)COC(=O)[C@]3(O)CC + Cc1cccc(N(C)C(=O)C2C(O)CCN2c2nc(C)cc(C(F)(F)F)c2C#N)c1 : its viability, T/C reads 65.3

Noted for COc1cc(C2c3cc4c(cc3C(OC3OC5COC(C)OC5C(O)C3O)C3COC(=O)C23)OCO4)cc(OC)c1O (stereo not given) + Cc1cccc(N(C)C(=O)C2C(O)CCN2c2nc(C)cc(C(F)(F)F)c2C#N)c1 : its viability, T/C reads 98

Noted for COc1cc(C2c3cc4c(cc3C(OC3OC5COC(C)OC5C(O)C3O)C3COC(=O)C23)OCO4)cc(OC)c1O (stereo not given) + COC1C(OC(N)=O)C(O)C(Oc2ccc3c(O)c(NC(=O)c4ccc(O)c(CC=C(C)C)c4)c(=O)oc3c2C)OC1(C)C : its viability, T/C reads 93.8

Noted for CCc1cc2c(N3CCc4c(cc(Cn5ccnc5)cc4-c4cn(C)nc4C(F)(F)F)C3=O)ccnc2c(OC)n1 + Cc1cccc(N(C)C(=O)C2C(O)CCN2c2nc(C)cc(C(F)(F)F)c2C#N)c1 : its viability, T/C reads 98.7

Noted for CCc1c2c(nc3ccc(O)cc13)-c1cc3c(c(=O)n1C2)COC(=O)[C@]3(O)CC + COC1C(OC(N)=O)C(O)C(Oc2ccc3c(O)c(NC(=O)c4ccc(O)c(CC=C(C)C)c4)c(=O)oc3c2C)OC1(C)C : its viability, T/C reads 64.3

Noted for Cn1ncnc1[C@H]1c2n[nH]c(=O)c3cc(F)cc(c23)N[C@@H]1c1ccc(F)cc1 + Nc1ccc(C#CCN(C(=O)Cc2ncc(C(F)(F)F)cc2C(F)(F)F)c2ccc(F)cc2)nn1 : its viability, T/C reads 107

Noted for CNCc1ccc(-c2[nH]c3cc(F)cc4c3c2CCNC4=O)cc1 + Nc1ccc(C#CCN(C(=O)Cc2ncc(C(F)(F)F)cc2C(F)(F)F)c2ccc(F)cc2)nn1 : its viability, T/C reads 115

Noted for Nc1ccn(C2OC(CO)C(O)C2(F)F)c(=O)n1 (stereo not given) + Cc1cccc(N(C)C(=O)C2C(O)CCN2c2nc(C)cc(C(F)(F)F)c2C#N)c1 : its viability, T/C reads 66

Noted for O=C(c1cc(Cc2n[nH]c(=O)c3ccccc23)ccc1F)N1CCN(C(=O)C2CC2)CC1 + Cc1cccc(N(C)C(=O)C2C(O)CCN2c2nc(C)cc(C(F)(F)F)c2C#N)c1 : its viability, T/C reads 93.5

Noted for CC1COCCN1c1cc(C2(O)CC3CCC(C2)O3)c2cnn(-c3ccn[nH]3)c2n1 (stereo not given) + COC1C(OC(N)=O)C(O)C(Oc2ccc3c(O)c(NC(=O)c4ccc(O)c(CC=C(C)C)c4)c(=O)oc3c2C)OC1(C)C : its viability, T/C reads 86.4

Noted for O=c1[nH]cc(F)c(=O)[nH]1 + COC1C(OC(N)=O)C(O)C(Oc2ccc3c(O)c(NC(=O)c4ccc(O)c(CC=C(C)C)c4)c(=O)oc3c2C)OC1(C)C : its viability, T/C reads 110

Values from PubChem BioAssay AID1963849
